system: KM12; assay: NCI tumour cell line growth inhibition, 48 h
Active and inactive are the calls of the source. Rule as the data show it: active = GI50 up to about 1.1 µM and inactive = higher.
Measured GI50, listed per entry for reference.
endpoint label: GI50

>>> value_reported("CC1=C(C)CC2C(=O)N(c3cc(C(C)(C)C)ccc3C(C)(C)C)C(=O)C2C1 (configuration not stated)")
"> 100 µM (inactive)"
>>> value_reported("COc1ccc2c3c([nH]c2c1)-c1nc2ccccc2c(=O)n1CC3")
"> 25 µM (inactive)"
>>> value_reported("CN1C=C(C(N)=O)Cc2ccsc21")
"> 100 µM (inactive)"
>>> value_reported("N#CC1=C(N)OC2=C(CCCc3ccc([N+](=O)[O-])cc32)C1c1ccc(Cl)cc1 (configuration not stated)")
"5.58 µM (inactive)"
>>> value_reported("S=P1(Oc2ccccc2)NNP2(=NP(N3CC3)(N3CC3)=NP(N3CC3)(N3CC3)=N2)NN1 (configuration not stated)")
"> 100 µM (inactive)"
>>> value_reported("CCCN(CCCC(NC(C)=O)C(=O)NCc1ccccc1)C(=O)N(C)N=O (configuration not stated)")
"> 100 µM (inactive)"
>>> value_reported("c1ccc(-c2csc3c2-n2cccc2C3N2CCCC2)cc1 (configuration not stated)")
"30.7 µM (inactive)"
>>> value_reported("O=[N+]([O-])C(/C=N/Nc1ccccc1)/C=N/Nc1ccccc1")
"> 100 µM (inactive)"
>>> value_reported("O=S(=O)(/N=c1\\[nH]c(-c2cc(O)c(O)c(O)c2)cs1)c1ccc(Cl)cc1Cl")
"15.2 µM (inactive)"
>>> value_reported("CCN(CC)/[N+]([O-])=N/OCC(C)O (configuration not stated)")
"> 100 µM (inactive)"
>>> value_reported("CCOC(=O)Nn1c(CC#N)nnc1Cc1ccccc1")
"> 100 µM (inactive)"
>>> value_reported("CC(C)(C)c1ccc(O)c(CN(Cc2c(O)ccc3ccccc23)C2CCCCC2)c1")
"17.6 µM (inactive)"
